All values here come from patent US20200277278A1.

Provide the reported pEC50 of each item.
biological target: RORγ LBD (Homo sapiens, UniProt P51449); construct: RORγ LBD (AB Vector); purchased AB Vector; test: LanthaScreen TR-FRET RORγ co-activation system, effect on in vitro activity of RORγ; type: biochemical
Sequence (P51449 269-508 limits assumed): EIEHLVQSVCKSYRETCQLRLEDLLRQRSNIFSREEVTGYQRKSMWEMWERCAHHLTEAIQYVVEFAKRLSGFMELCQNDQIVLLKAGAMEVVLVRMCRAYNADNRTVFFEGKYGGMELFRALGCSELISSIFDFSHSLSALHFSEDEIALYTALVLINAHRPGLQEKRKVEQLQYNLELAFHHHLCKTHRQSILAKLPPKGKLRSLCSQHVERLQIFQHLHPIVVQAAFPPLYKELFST
Answers are plain numbers, as −log10 of the molar value.

The molecule listed as [2H]C([2H])(NC(=O)c1ccc2c(c1)cc(Cc1ccc(Cl)cc1C(F)(F)F)n2CCF)c1ccc(S(=O)(=O)CC)cc1 has a reported pEC50 of 7.77

The molecule listed as [2H]C([2H])(O)Cn1c(Cc2ccc(Cl)cc2C(F)(F)F)cc2cc(C(=O)N[C@@H](CO)c3ccc(S(=O)(=O)CC)cc3)ccc21 has a reported pEC50 of 8.05

The molecule listed as [2H]C([2H])(F)Cn1c(Cc2ccc(Cl)cc2C(F)(F)F)cc2cc(C(=O)N[C@@H](CO)c3ccc(S(=O)(=O)CC)cn3)ccc21 has a reported pEC50 of 8.05

The molecule listed as [2H]C([2H])(C)n1c(Cc2ccc(Cl)cc2C(F)(F)F)cc2cc(C(=O)N[C@@H](CO)c3ccc(S(=O)(=O)CC)cc3)ccc21 has a reported pEC50 of 7.68

Below is a list of molecules. For each, state its recorded pEC50.
1. [2H]C([2H])(NC(=O)c1ccc2c(c1)cc(Cc1ccccc1C(F)(F)F)n2C1CC1)c1ccc(S(=O)(=O)CC)cc1
2. [2H]C([2H])([2H])OC[C@H](NC(=O)c1ccc2c(c1)cc(Cc1ccc(Cl)cc1C(F)(F)F)n2CCF)c1ccc(S(=O)(=O)CC)cc1
3. [2H]C([2H])(c1cc2cc(C(=O)N[C@@H](CO)c3ccc(S(=O)(=O)CC)cc3)ccc2n1C1CC1)n1nccc1C(F)(F)F

**A:**
8.30
7.47
7.80

---

Provide the reported Emax of each item.
molecular target: RORγ LBD (Homo sapiens, UniProt P51449); construct: RORγ LBD (AB Vector); purchased AB Vector; assay: LanthaScreen TR-FRET RORγ co-activation system, effect on in vitro activity of RORγ; format: biochemical
Give bare numbers, in %.

Past entries and their recorded results:
The compound listed as [2H]C([2H])(NC(=O)c1ccc2c(c1)cc(Cc1ccc(Cl)cc1C(F)(F)F)n2CCF)c1ccc(S(=O)(=O)CC)cc1 has a reported Emax of 98

The compound listed as [2H]C([2H])(c1cc2cc(C(=O)N[C@@H](CO)c3ccc(S(=O)(=O)CC)cc3)ccc2n1C1CC1)n1nccc1C(F)(F)F has a reported Emax of 89

The compound listed as [2H]C([2H])(C)n1c(Cc2ccc(Cl)cc2C(F)(F)F)cc2cc(C(=O)N[C@@H](CO)c3ccc(S(=O)(=O)CC)cc3)ccc21 has a reported Emax of 84

Below is a list of compounds. For each, state its recorded Emax.
1. [2H]C([2H])(O)Cn1c(Cc2ccc(Cl)cc2C(F)(F)F)cc2cc(C(=O)N[C@@H](CO)c3ccc(S(=O)(=O)CC)cc3)ccc21
2. [2H]C([2H])(F)Cn1c(Cc2ccc(Cl)cc2C(F)(F)F)cc2cc(C(=O)N[C@@H](CO)c3ccc(S(=O)(=O)CC)cn3)ccc21
3. [2H]C([2H])(NC(=O)c1ccc2c(c1)cc(Cc1ccccc1C(F)(F)F)n2C1CC1)c1ccc(S(=O)(=O)CC)cc1
4. [2H]C([2H])([2H])OC[C@H](NC(=O)c1ccc2c(c1)cc(Cc1ccc(Cl)cc1C(F)(F)F)n2CCF)c1ccc(S(=O)(=O)CC)cc1

**A:**
1. 73
2. 77
3. 98
4. 85

---

test: Pharmacokinetics assay in mice; assay type: in vivo; conditions: female, mouse, in vivo, po; C57 mice, intragastric, 2 mg/kg; read-out: Half-life T½ (converted)
measured-attribute: half-life (h)
Numbers only, in h.

The compound listed as [2H]C([2H])([2H])C([2H])([2H])S(=O)(=O)c1ccc([C@H](CO)NC(=O)c2ccc3c(c2)cc(Cc2ccc(Cl)cc2C(F)(F)F)n3CCF)cc1 (single isomer, unassigned) has a reported half-life of 6.29

---

assay: Pharmacokinetics assay in mice; assay type: in vivo; conditions: female, mouse, in vivo, po; C57 mice, intragastric, 2 mg/kg; read-out: Area under curve AUC
measured-attribute: AUC (ng·h/mL)
Answers are plain numbers, in ng·h/mL.

The compound listed as [2H]C([2H])([2H])C([2H])([2H])S(=O)(=O)c1ccc([C@H](CO)NC(=O)c2ccc3c(c2)cc(Cc2ccc(Cl)cc2C(F)(F)F)n3CCF)cc1 (single isomer, unassigned) [Example 6] has a reported AUC of 31600
